Origin of the recorded values: the nanobody polyreactivity screen of Harvey et al. (2022)

- ASSAY_TEXT: yeast display, Sf9 membrane polyspecificity reagent, FACS + sequencing; frameworks hold sequencing errors
MEASURED_ATTRIBUTE: polyreactivity (PSR sort gate)

RESIDUE_SEQUENCE: QVQLVESGGGLVQAAGSLRLSCAASGSIAMGWYRQAPGKERELVATISSSGGSTYYADSVKGRFTISRDNAKNTVYLQMNSLKPEDTAVYYCAAGGYTLYHAWGYYWGQGTQVTVSS
MEASURED_ATTRIBUTE: polyreactivity (PSR sort gate)
RESULT: low polyreactivity
//
RESIDUE_SEQUENCE: QVQLVESCGGLVQAGGSLRLSCAASGSIFPYYTMGWYRQAPWKERELVAAISGSGGSTYYADSVKGRFTISRDNAKNTVYLQMNSLKAEYTAVYYCAAYRRTWFDYWGQGTQVTVSS
MEASURED_ATTRIBUTE: polyreactivity (PSR sort gate)
RESULT: high polyreactivity
//
RESIDUE_SEQUENCE: QVQHVESGGGLVQAGGSLRLSCAASGFIFSNNAMGRYRQAPGKERELVAAITSSGGRTYYADSVKGRFTISRDNAKNTVYLQMNSLKPEDTAVYYCAAVWRTSVWTKYGYWGQGTQVTVSS
MEASURED_ATTRIBUTE: polyreactivity (PSR sort gate)
RESULT: high polyreactivity
//
RESIDUE_SEQUENCE: QVQLVESGGGLVQAGGSLRLSCAASGRTFRRNAMGWYRQAPGKERELVAAISFSAGRTYYADSVKGRFTISRDNAKNTVYLQMNSLKPEDTAVYYCNALRQDTGHYPYDYWGQGTQVTVSS
MEASURED_ATTRIBUTE: polyreactivity (PSR sort gate)
RESULT: low polyreactivity
//
RESIDUE_SEQUENCE: QVQLVESGGGLVQAGGSLRLSCAASGFIFTHNAMGWYRQAPGKERELVAAISRSGGRTYYADSVKGRFTISRDNAKNTVYLQMNSLKPEDTAVYYCAKDAYVYGMGYWGQGTQVTVSS
MEASURED_ATTRIBUTE: polyreactivity (PSR sort gate)
RESULT: high polyreactivity
